All figures here come from patent US20110059889A1.

# experimental-system: T1, soluble human FcRn (shFcRn) (human, UniProt P55899 24-297; P61769 21-119)
# T1 construct: Biotinylated for the ELISA, amine-coupled to a CM5 chip for SPR; also called biotinylated shFcRn
# T1 sequence (P55899 24-297 limits assumed, chain 1 of 2): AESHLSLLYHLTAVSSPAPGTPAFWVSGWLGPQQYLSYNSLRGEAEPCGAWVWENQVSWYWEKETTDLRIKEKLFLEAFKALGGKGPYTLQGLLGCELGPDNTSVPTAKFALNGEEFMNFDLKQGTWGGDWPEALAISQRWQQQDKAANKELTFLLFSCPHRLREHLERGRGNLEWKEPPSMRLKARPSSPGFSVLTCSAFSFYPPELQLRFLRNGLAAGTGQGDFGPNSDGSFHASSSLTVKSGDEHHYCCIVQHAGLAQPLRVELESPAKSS
# T1 sequence (P61769 21-119 limits assumed, chain 2 of 2): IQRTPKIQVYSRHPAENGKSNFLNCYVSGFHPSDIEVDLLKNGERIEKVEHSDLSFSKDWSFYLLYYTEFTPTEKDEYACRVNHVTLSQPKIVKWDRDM
# protocol: SPR pH 6; ThienylAla in place of His
reported-metric: pKd
FYI, pKd means -log10 of a concentration in mol per litre.

# query: pKd of entry RFCTGXFGGLYPC (Pen 3; ThienylAla 6; Sar 9; NMeL 10; disulfide 3-13; C-terminal amide) [Peptide No. 251]
5.70
